All figures here come from paper PMC8338929.

# targetOfAssay: human PepT1 (SLC15A1) (Homo sapiens)
# Sequence (P46059 whole entry): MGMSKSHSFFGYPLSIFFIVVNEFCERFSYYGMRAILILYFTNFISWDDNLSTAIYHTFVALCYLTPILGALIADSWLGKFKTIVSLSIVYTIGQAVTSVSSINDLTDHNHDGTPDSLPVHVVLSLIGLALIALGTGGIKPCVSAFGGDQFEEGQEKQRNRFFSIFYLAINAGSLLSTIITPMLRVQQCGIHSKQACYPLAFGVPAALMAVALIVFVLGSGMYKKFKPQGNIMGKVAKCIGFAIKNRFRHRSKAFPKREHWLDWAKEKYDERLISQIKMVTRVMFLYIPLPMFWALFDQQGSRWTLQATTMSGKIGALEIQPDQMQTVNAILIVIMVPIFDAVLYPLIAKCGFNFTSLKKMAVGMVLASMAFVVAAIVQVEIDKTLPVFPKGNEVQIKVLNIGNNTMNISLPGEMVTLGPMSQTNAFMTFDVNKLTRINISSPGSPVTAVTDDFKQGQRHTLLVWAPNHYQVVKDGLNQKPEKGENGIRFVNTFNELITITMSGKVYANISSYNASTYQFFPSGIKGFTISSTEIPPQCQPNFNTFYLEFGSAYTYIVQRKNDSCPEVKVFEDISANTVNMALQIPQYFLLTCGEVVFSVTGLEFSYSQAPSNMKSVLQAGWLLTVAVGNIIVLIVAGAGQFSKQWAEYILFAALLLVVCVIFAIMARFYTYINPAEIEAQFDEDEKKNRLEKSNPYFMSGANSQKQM
# assayRemarks: Inhibition of PepT1 uptake of probe substrate Gly-Sar in MDCK-II cells
# conditionLabel: probe Gly-Sar 50 µM; positive control losartan 200 µM; pH 5.5
pIC50: −log10 of the molar value.

structure	pIC50
CC(=O)N[C@@H](CC(C)C)C(=O)O	3.13

* * *

# targetOfAssay: Human OAT3 (SLC22A8) (Homo sapiens, UniProt Q8TCC7)
# Sequence (Q8TCC7 1-542): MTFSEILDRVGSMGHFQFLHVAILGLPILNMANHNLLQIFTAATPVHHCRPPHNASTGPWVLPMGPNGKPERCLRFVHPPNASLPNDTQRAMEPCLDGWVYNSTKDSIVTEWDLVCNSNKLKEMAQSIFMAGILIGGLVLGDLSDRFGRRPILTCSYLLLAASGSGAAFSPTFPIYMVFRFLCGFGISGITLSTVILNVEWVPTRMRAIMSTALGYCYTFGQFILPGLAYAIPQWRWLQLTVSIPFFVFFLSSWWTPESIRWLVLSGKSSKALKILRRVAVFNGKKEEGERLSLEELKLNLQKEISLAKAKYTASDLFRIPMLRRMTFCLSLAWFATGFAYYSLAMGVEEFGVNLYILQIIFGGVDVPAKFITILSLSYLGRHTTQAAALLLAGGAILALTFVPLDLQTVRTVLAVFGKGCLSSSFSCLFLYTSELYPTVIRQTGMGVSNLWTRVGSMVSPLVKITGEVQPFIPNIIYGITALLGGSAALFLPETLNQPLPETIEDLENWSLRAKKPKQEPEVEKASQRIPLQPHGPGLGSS
# assayRemarks: Inhibition of OAT3 uptake of probe substrate estrone-3-sulfate in HEK-293 cells
# conditionLabel: probe estrone-3-sulfate 2 µM; positive control diclofenac 100 µM
pIC50: −log10 of the molar value.
quantityMeasured: pIC50

structure	targetOfAssay	observed
CC(=O)N[C@@H](CC(C)C)C(=O)O	Human OAT3 (SLC22A8) (Homo sapiens, UniProt Q8TCC7)	3.15

* * *

# targetOfAssay: Human OAT1 (SLC22A6) (Homo sapiens, UniProt Q4U2R8)
# Sequence (Q4U2R8 1-563): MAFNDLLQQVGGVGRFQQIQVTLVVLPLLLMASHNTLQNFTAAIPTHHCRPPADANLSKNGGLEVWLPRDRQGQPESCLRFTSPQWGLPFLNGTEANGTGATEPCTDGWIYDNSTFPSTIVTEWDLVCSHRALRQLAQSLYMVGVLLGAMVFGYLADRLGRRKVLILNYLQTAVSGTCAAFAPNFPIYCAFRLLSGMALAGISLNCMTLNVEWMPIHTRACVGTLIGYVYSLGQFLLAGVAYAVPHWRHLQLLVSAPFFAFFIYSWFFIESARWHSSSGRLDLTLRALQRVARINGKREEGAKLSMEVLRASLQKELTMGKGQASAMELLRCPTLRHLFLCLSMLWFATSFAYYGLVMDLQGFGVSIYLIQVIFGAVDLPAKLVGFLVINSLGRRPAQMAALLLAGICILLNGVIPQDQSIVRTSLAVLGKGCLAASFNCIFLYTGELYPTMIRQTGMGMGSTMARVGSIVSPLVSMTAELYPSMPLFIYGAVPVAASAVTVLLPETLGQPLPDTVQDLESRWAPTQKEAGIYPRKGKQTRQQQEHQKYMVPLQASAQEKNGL
# assayRemarks: Inhibition of OAT1 uptake of probe substrate chlorothiazide in HEK-293 cells
# conditionLabel: probe chlorothiazide 3 µM; positive control diclofenac 100 µM
# Method: Cells were grown in DMEM (Gibco 4196, high glucose, without sodium pyruvate) supplemented with MEM non-essential amino acids and 10% fetal bovine serum. Cells were re-fed with fresh medium after attachment (4–6 h post-seeding). Cell were plated at a density of 4 × 10^5/well in 24-well plates coated with poly-D-lysine. Transporter assays were conducted in 400 µL of HBSS supplemented with 10 mM Hepes, pH 7.4 […]
pIC50: −log10 of the molar value.

structure	pIC50
CC(=O)N[C@@H](CC(C)C)C(=O)O	2.21
